Kindly supply the reported HC50 at 24 h values for the records listed here.
assay-remarks: Hemolytic activity in human RBC assessed as hemolysis measured after 24 hrs
Format: toxicity, cell-based, Erythrocyte
recorded-conditions: red blood cells
Square brackets hold non-standard residues; d marks the D form. Peptide text beside a SMILES is read from it. hIle = CC[C@H](C)C[C@H](N)C(=O)O; Cha = N[C@@H](CC1CCCCC1)C(=O)O
Provide the reading as a plain figure in µM.

Lookup result for CC(C)C[C@H](NC(=O)[C@H](CC(C)C)NC(=O)[C@@H](NC(=O)[C@H](CCCCN)NC(=O)[C@H](CC1CCCCC1)NC(=O)[C@H](CCCNC(=N)N)NC(=O)[C@H](CCCCN)NC(=O)[C@H](CC(C)C)NC(=O)[C@H](CC(C)C)NC(=O)CN)[C@@H](C)O)C(N)=O (H-GLLKR[Cha]KTLL-NH2) ; measured HC50 at 24 h: 304

GET /value?item= CC[C@H](C)C[C@H](NC(=O)[C@H](CCCNC(=N)N)NC(=O)[C@H](CCCCN)NC(=O)[C@H](CC(C)C)NC(=O)[C@H](CC1CCCCC1)NC(=O)CN)C(=O)N[C@@H](CCCCN)C(=O)N[C@H](C(=O)N[C@@H](CC(C)C)C(=O)N[C@@H](CC(C)C)C(N)=O)[C@@H](C)O (H-G[Cha]LKR[hIle]KTLL-NH2) &field=HC50 at 24 h returns 195

###

Tested on: Pseudomonas aeruginosa
assay-remarks: Antibacterial activity against Pseudomonas aeruginosa ATCC 15442 assessed as reduction in bacterial cell growth incubated for 18 to 24 hrs by two fold serial microdilution method
Type: functional
recorded-conditions: time 18-24 hrs
Square brackets hold non-standard residues; d marks the D form. Peptide text beside a SMILES is read from it. 2Nal = N[C@@H](Cc1ccc2ccccc2c1)C(=O)O; Cha = N[C@@H](CC1CCCCC1)C(=O)O
readout: MIC (µM)
API: value field is a number in µM; no unit string.

// field: MIC; key: CC(C)C[C@H](NC(=O)CN)C(=O)N[C@@H](CC(C)C)C(=O)N[C@@H](CCCCN)C(=O)N[C@@H](CCCCN)C(=O)N[C@@H](Cc1ccc2ccccc2c1)C(=O)N[C@@H](CCCCN)C(=O)N[C@H](C(=O)N[C@@H](CC(C)C)C(=O)N[C@@H](CC1CCCCC1)C(N)=O)[C@@H](C)O (H-GLLKK[2Nal]KTL[Cha]-NH2) ; value = 6.6

MIC for CC[C@H](C)[C@H](NC(=O)[C@H](CCCCN)NC(=O)[C@H](CCCCN)NC(=O)[C@H](CC(C)C)NC(=O)[C@H](CC1CCCCC1)NC(=O)CN)C(=O)N[C@@H](CCCCN)C(=O)N[C@@H](CCCCN)C(=O)N[C@@H](CC(C)C)C(=O)N[C@@H](CC1CCCCC1)C(N)=O (H-G[Cha]LKKIKKL[Cha]-NH2) is 3.2

Per the record, CC(C)C[C@H](NC(=O)[C@H](CC(C)C)NC(=O)[C@@H](NC(=O)[C@H](CCCCN)NC(=O)[C@H](Cc1ccc2ccccc2c1)NC(=O)[C@H](CCCCN)NC(=O)[C@H](CCCCN)NC(=O)[C@H](CC(C)C)NC(=O)[C@H](CC1CCCCC1)NC(=O)CN)[C@@H](C)O)C(N)=O (H-G[Cha]LKK[2Nal]KTLL-NH2) has MIC of 9.5

Form: compound = CC(C)C[C@H](NC(=O)[C@H](CC(C)C)NC(=O)[C@H](CCCCN)NC(=O)[C@H](CCCCN)NC(=O)[C@H](Cc1ccc2ccccc2c1)NC(=O)[C@H](CCCNC(=N)N)NC(=O)[C@H](CCCCN)NC(=O)[C@H](CC(C)C)NC(=O)[C@H](CCCCN)NC(=O)CN)C(N)=O (H-GKLKR[2Nal]KKLL-NH2) ; MIC = 9.5

The compound identified as CC[C@H](C)[C@H](NC(=O)[C@H](CCCNC(=N)N)NC(=O)[C@H](CCCCN)NC(=O)[C@H](CC(C)C)NC(=O)[C@H](CC(C)C)NC(=O)CN)C(=O)N[C@@H](CCCCN)C(=O)N[C@@H](CCCCN)C(=O)N[C@@H](CC(C)C)C(=O)N[C@@H](CC1CCCCC1)C(N)=O (H-GLLKRIKKL[Cha]-NH2) registered its MIC at 4.6
